logkIAM by entry:
run_description: HPLC on IAM (immobilized artificial membrane) column, retention factor
Format: physicochemical
conditions_used: logarithm of retention factor; IAM.PC.DD.2 column; phosphate buffer pH 7.4:acetonitrile 80:20

- compound: "CCN(CC)CC#CCOC(=O)C(O)(c1ccccc1)C1CCCCC1 (stereo not shown)"
  logkIAM: 1.70
- compound: "CCCC(CCC)C(=O)O"
  logkIAM: -1.09
- compound: "CCN(CC)C(=O)Nc1ccc(OCC(O)CNC(C)(C)C)c(C(C)=O)c1 (stereo not shown)"
  logkIAM: 0.77
- compound: "CC(=O)Oc1ccccc1C(=O)O"
  logkIAM: -1.52

---

Recorded k(IAM) retention factor values for a group of compounds are listed next.
run_description: HPLC on IAM (immobilized artificial membrane) column, retention factor
Assay type: physicochemical
conditions_used: IAM.PC.DD.2 column; 10 mM phosphate buffer pH 7.4:acetonitrile 80:20
assay_metric: k(IAM) retention factor

- compound: "NS(=O)(=O)c1cc(C2(O)NC(=O)c3ccccc32)ccc1Cl (centres unmarked)"
  recorded_measurement: 1.32
- compound: "Cn1c(=O)c2c(ncn2C)n(C)c1=O"
  recorded_measurement: 0.18
- compound: "CN1CCN(C(=O)OC2c3nccnc3C(=O)N2c2ccc(Cl)cn2)CC1 (centres unmarked)"
  recorded_measurement: 0.91
- compound: "COc1cc2nc(N3CCN(C(=O)C4COc5ccccc5O4)CC3)nc(N)c2cc1OC (centres unmarked)"
  recorded_measurement: 0.22
- compound: "Cc1ccc(O)c([C@H](CCN(C(C)C)C(C)C)c2ccccc2)c1"
  recorded_measurement: 0.21
- compound: "CC(C(=O)O)c1cccc(C(=O)c2ccccc2)c1 (centres unmarked)"
  recorded_measurement: 0.20
- compound: "C[C@]12CC[C@@H]3c4ccc(OC(=O)c5ccccc5)cc4CC[C@H]3[C@@H]1CC[C@@H]2O [estradiol benzoate]"
  recorded_measurement: 6.92
- compound: "COc1ccnc(C[S+]([O-])c2nc3ccc(OC(F)F)cc3[nH]2)c1OC (centres unmarked)"
  recorded_measurement: 2.19
- compound: "CCC[C@H](N[C@@H](C)C(=O)N1[C@H](C(=O)O)C[C@@H]2CCCC[C@@H]21)C(=O)OCC"
  recorded_measurement: 0.18
- compound: "CN1C(C(=O)Nc2ccccn2)=C(O)c2ccccc2S1(=O)=O"
  recorded_measurement: 0.16
- compound: "CCCc1nn(C)c2c(=O)[nH]c(-c3cc(S(=O)(=O)N4CCN(C)CC4)ccc3OCC)nc12"
  recorded_measurement: 14.26

---

run_description: Reversed-phase TLC on RP-2 silanized plates (Rf)
Type: physicochemical
conditions_used: silica gel 60 RP-2 F254 silanized; water:methanol:acetonitrile 60:20:20, ammonium acetate pH 7.4
assay_metric: RP (Rf from RP-2 TLC plate)

- compound: "O=C1NC(=O)C(c2ccccc2)(c2ccccc2)N1"
  recorded_measurement: 0.87
- compound: "COC(=O)c1ccc(O)cc1"
  recorded_measurement: 0.85
- compound: "COc1cc(N)c(Cl)cc1C(=O)NC1CCN(CCCOc2ccc(F)cc2)CC1OC (stereo not shown) [cisapride]"
  recorded_measurement: 0.65
- compound: "CCOCCn1c(C2CCN(CCc3ccc(C(C)(C)C(=O)O)cc3)CC2)nc2ccccc21"
  recorded_measurement: 0.76

Source of measurements: paper PMC10384010
